Numbers sourced from the supplement of paper PMC10567573.

B1: DLC1 (parent)
chain: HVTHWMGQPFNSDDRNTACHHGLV

Variants of: B1
Experiment: protein stability index of a GFP-peptide fusion (GPS, HEK-293T) (PSI 1-6); higher = more stable;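 further: lentivirally expressed fusions sorted by FACS into six bins by GFP to DsRed ratio, PSI derived from sequencing read proportions per bin multiplied by bin number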
Conditions: c terminus: a fixed tail appended
In this section we review reported protein stability index values for a set of variants.
// print number alone

Please review the following examples before continuing.
Req: Quick one: protein stability index of Q8A ?
Resp: 2.26

Req: Quick one: protein stability index of G7A ?
Resp: 2.35

Req: Quick one: protein stability index of A18K ?
Resp: 1.94

Req: Quick one: protein stability index of C19D ?
Resp: 2.68

Then this variant:
Req: Quick one: protein stability index of T3F ?
Resp: 1.69
